Target: Neuronal acetylcholine receptor; alpha4/beta2 (Rattus norvegicus, UniProt P09483+P12390)
Sequence (P09483 whole entry): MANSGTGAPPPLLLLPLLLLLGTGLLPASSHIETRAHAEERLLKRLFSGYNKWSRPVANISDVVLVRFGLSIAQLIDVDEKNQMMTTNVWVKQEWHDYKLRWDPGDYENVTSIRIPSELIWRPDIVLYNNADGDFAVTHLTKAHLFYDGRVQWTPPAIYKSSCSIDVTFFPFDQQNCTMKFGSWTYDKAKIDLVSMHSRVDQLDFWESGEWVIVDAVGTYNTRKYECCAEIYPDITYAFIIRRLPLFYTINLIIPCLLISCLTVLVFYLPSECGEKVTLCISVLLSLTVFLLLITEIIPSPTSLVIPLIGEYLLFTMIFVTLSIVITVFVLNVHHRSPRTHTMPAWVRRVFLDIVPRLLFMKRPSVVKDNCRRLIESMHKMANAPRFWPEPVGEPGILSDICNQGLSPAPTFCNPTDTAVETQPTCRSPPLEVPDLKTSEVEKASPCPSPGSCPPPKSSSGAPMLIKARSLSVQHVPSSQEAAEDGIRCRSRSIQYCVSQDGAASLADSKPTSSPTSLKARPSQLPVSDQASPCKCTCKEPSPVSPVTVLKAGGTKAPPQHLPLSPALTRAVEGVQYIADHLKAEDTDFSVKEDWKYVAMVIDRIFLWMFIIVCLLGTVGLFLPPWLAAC
Sequence (P12390 whole entry): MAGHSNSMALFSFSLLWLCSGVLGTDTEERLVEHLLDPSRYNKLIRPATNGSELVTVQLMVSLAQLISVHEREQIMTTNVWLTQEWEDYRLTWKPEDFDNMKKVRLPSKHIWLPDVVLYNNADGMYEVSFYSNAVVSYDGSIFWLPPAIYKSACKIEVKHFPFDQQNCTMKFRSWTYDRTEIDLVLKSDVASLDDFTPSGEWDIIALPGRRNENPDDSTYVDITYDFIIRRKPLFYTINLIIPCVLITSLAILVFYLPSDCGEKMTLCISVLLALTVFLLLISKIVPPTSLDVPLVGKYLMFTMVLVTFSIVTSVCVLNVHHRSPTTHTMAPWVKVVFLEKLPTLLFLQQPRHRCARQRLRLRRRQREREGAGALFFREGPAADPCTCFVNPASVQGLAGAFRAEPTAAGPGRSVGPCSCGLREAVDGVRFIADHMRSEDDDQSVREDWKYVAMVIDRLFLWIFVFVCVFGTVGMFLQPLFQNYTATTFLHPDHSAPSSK
Experiment: In vitro binding affinity for Nicotinic acetylcholine receptor alpha4-beta2 in rat cerebral cortical membrane using [3H]cytisine as radioligand
Type: cell membranes
Settings: read-out: IC50
readout.kind: IC50 (nM)

                           entry_smiles                        measurement_target  measurement_units  value
0              COCCOc1cncc(N2CCCNCC2)c1  Neuronal acetylcholine receptor; alpha4/beta2 (Rattus norvegicus, UniProt P09483+P12390)                 nM    2.4
1       Nc1cccc(-c2cncc(N3CCCNCC3)c2)c1  Neuronal acetylcholine receptor; alpha4/beta2 (Rattus norvegicus, UniProt P09483+P12390)                 nM      4
2        c1ccc(Sc2cncc(N3CCCNCC3)c2)cc1  Neuronal acetylcholine receptor; alpha4/beta2 (Rattus norvegicus, UniProt P09483+P12390)                 nM      4
3  c1ccc2nc(-c3cncc(N4CCCNCC4)c3)ccc2c1  Neuronal acetylcholine receptor; alpha4/beta2 (Rattus norvegicus, UniProt P09483+P12390)                 nM    6.6
4        c1cncc(-c2cncc(N3CCCNCC3)c2)c1  Neuronal acetylcholine receptor; alpha4/beta2 (Rattus norvegicus, UniProt P09483+P12390)                 nM    2.8
